target: MMP-9 (Homo sapiens); construct: purchased Abchem (so in the source); test: MMP9 Inhibitor Screening Assay Kit (ab139448), colorimetric thiopeptide substrate, OD412; type: biochemical; settings: remaining enzyme activity, untreated group = 100%; compound at 50 nM; n=2
Sequence (P14780 94-707): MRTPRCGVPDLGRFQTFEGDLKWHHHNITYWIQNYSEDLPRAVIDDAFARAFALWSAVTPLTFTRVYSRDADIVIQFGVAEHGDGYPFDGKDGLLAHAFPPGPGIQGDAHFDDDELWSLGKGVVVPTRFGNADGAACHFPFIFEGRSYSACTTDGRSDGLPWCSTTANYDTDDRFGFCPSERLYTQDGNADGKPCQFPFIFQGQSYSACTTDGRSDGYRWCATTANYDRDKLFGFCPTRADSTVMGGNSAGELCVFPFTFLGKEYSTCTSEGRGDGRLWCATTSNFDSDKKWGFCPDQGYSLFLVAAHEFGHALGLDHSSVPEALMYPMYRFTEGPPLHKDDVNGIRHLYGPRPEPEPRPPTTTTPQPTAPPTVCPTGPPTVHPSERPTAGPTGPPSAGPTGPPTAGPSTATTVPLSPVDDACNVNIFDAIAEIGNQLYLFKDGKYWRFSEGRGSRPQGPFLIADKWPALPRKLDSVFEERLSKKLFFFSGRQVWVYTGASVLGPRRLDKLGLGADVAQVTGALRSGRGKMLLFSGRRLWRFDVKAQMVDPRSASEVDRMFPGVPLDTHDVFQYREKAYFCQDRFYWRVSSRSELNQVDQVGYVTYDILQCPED

>  <Compound>
Cc1cc(C)c(S(=O)(=O)NC(C(=O)NO)C(C)C)c(C)c1 (stereo not shown)

>  <U>
%

>  <remaining activity at 0.05 µM>
100

$$$$
>  <Compound>
CC(=NO)c1ccc(S(=O)(=O)N2CCCCC2C(=O)NO)cc1 (stereo not shown)

>  <U>
%

>  <remaining activity at 0.05 µM>
19.9

$$$$
>  <Compound>
CC(=O)c1ccc(S(=O)(=O)N2CCCC2C(=O)NO)cc1 (stereo not shown)

>  <U>
%

>  <remaining activity at 0.05 µM>
100

$$$$
>  <Compound>
CCCc1ccc(S(=O)(=O)N2CCCC2C(=O)NO)cc1 (stereo not shown)

>  <U>
%

>  <remaining activity at 0.05 µM>
100

$$$$
>  <Compound>
CC(C)(C)c1ccc(S(=O)(=O)NC(Cc2ccccc2)C(=O)NO)cc1 (stereo not shown)

>  <U>
%

>  <remaining activity at 0.05 µM>
100

$$$$
>  <Compound>
CCCCOc1ccc(S(=O)(=O)N2CCCC2C(=O)NO)cc1 (stereo not shown)

>  <U>
%

>  <remaining activity at 0.05 µM>
50.2

$$$$
>  <Compound>
CC(C)CC(NS(=O)(=O)c1ccccc1)C(=O)NO (stereo not shown)

>  <U>
%

>  <remaining activity at 0.05 µM>
97.4

$$$$
>  <Compound>
CC(C)(C)c1ccc(S(=O)(=O)N2CCCC2C(=O)NO)cc1 (stereo not shown)

>  <U>
%

>  <remaining activity at 0.05 µM>
100

$$$$
>  <Compound>
CC(C)CC(NS(=O)(=O)c1ccc(-c2ccccc2)cc1)C(=O)NO (stereo not shown)

>  <U>
%

>  <remaining activity at 0.05 µM>
70.6

$$$$
>  <Compound>
CC(=O)Nc1ccc(S(=O)(=O)N2CCCC2C(=O)NO)cc1 (stereo not shown)

>  <U>
%

>  <remaining activity at 0.05 µM>
100

$$$$
>  <Compound>
CC(C)C(NS(=O)(=O)c1ccc(C(C)(C)C)cc1)C(=O)NO (stereo not shown)

>  <U>
%

>  <remaining activity at 0.05 µM>
100

$$$$
>  <Compound>
CC(=O)Nc1ccc(S(=O)(=O)N2CCCCC2C(=O)NO)cc1 (stereo not shown)

>  <U>
%

>  <remaining activity at 0.05 µM>
100

$$$$
>  <Compound>
CCCc1ccc(S(=O)(=O)N2CCCCC2C(=O)NO)cc1 (stereo not shown)

>  <U>
%

>  <remaining activity at 0.05 µM>
99

$$$$
>  <Compound>
O=C(NO)C1CCCCN1S(=O)(=O)c1ccc(F)cc1 (stereo not shown)

>  <U>
%

>  <remaining activity at 0.05 µM>
100

$$$$
>  <Compound>
O=C(NO)C(Cc1ccccc1)NS(=O)(=O)c1ccc2ccccc2c1 (stereo not shown)

>  <U>
%

>  <remaining activity at 0.05 µM>
100

$$$$
>  <Compound>
CCCCOc1ccc(S(=O)(=O)NC(CC(C)C)C(=O)NO)cc1 (stereo not shown)

>  <U>
%

>  <remaining activity at 0.05 µM>
73.5

$$$$
